experiment: Thermal stability measurement (TG/DTA weight reduction temperature); conditions: TG/DTA, air 200 mL/min, 10° C./min, 30° C. to 600° C.
observable: Weight reduction temperature 20% (°C)
Use °C as the unit, but write only the number.

Memo: `C[n+]1ccn(CCC(F)(F)C(F)(F)C(F)(F)C(F)(F)C(F)(F)C(F)(F)C(F)(F)C(F)(F)F)c1.O=S(=O)([N-]S(=O)(=O)C(F)(F)C(F)(F)C(F)(F)C(F)(F)F)C(F)(F)C(F)(F)C(F)(F)C(F)(F)F` , reported Weight reduction temperature 20%: 381.3

Memo: CCCCCCCCCCCCCCCCCC[n+]1ccn(CCCC)c1.O=S(=O)([N-]S(=O)(=O)C(F)(F)C(F)(F)C(F)(F)C(F)(F)F)C(F)(F)C(F)(F)C(F)(F)C(F)(F)F [Comp. Ex. 8A, reference compound] , reported Weight reduction temperature 20%: 387.8

Memo: CCCCCCCCCCCCCCCCCCn1cc[n+](CCCCCCCCC[n+]2ccn(CCCCCCCCCCCCCCCCCC)c2)c1.O=S(=O)([N-]S(=O)(=O)C(F)(F)C(F)(F)C(F)(F)C(F)(F)F)C(F)(F)C(F)(F)C(F)(F)C(F)(F)F.O=S(=O)([N-]S(=O)(=O)C(F)(F)C(F)(F)C(F)(F)C(F)(F)F)C(F)(F)C(F)(F)C(F)(F)C(F)(F)F [Comp. Ex. 10A, reference compound] , reported Weight reduction temperature 20%: 400.9

Memo: `CCCCCCCCCCCCCCCCCC[N+]1=C2CCCCCN2CCC1.O=S(=O)([O-])C(F)(F)F` , reported Weight reduction temperature 20%: 389.0

Memo: `CCCCCCCCCCCCCCCCCCn1cc[n+](CCC[n+]2ccn(CCCCCCCCCCCCCCCCCC)c2)c1.O=S(=O)([N-]S(=O)(=O)C(F)(F)C(F)(F)C(F)(F)C(F)(F)F)C(F)(F)C(F)(F)C(F)(F)C(F)(F)F.O=S(=O)([N-]S(=O)(=O)C(F)(F)C(F)(F)C(F)(F)C(F)(F)F)C(F)(F)C(F)(F)C(F)(F)C(F)(F)F` , reported Weight reduction temperature 20%: 401.4

Memo: `CCCCCCCCCCCCCCCCCCn1cc[n+](CCCCC[n+]2ccn(CCCCCCCCCCCCCCCCCC)c2)c1.O=S(=O)([N-]S(=O)(=O)C(F)(F)C(F)(F)C(F)(F)C(F)(F)F)C(F)(F)C(F)(F)C(F)(F)C(F)(F)F.O=S(=O)([N-]S(=O)(=O)C(F)(F)C(F)(F)C(F)(F)C(F)(F)F)C(F)(F)C(F)(F)C(F)(F)C(F)(F)F` , reported Weight reduction temperature 20%: 402.0

Memo: `CCCCCCCCCCCCCCCCCC[n+]1ccn(CCC(F)(F)C(F)(F)C(F)(F)C(F)(F)C(F)(F)C(F)(F)C(F)(F)C(F)(F)F)c1.O=S(=O)([N-]S(=O)(=O)C(F)(F)C(F)(F)C(F)(F)C(F)(F)F)C(F)(F)C(F)(F)C(F)(F)C(F)(F)F` , reported Weight reduction temperature 20%: 377.7

Memo: CCCCCCCCCCCCCCCCCCN1CCCN2CCCN=C12.O=S1(=O)NS(=O)(=O)C(F)(F)C(F)(F)C1(F)F [Comp. Ex. 4A, reference compound] , reported Weight reduction temperature 20%: 412.1
